B1: RIPK4 (parent)
chain: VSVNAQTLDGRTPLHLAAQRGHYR

- Variants of: B1
- measurementDescription: protein stability index of a GFP-peptide fusion (GPS, HEK-293T) (PSI 1-6); higher = more stable;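 note: lentivirally expressed fusions sorted by FACS into six bins by GFP to DsRed ratio, PSI derived from sequencing read proportions per bin multiplied by bin number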
- conditionSet: c terminus: a fixed tail appended
Classification field: enter condition met for protein stability index values not below 3, condition not met for values below it.

S2N: condition met

# check: protein stability index of G10I is greater than or equal to 3
condition met

Try this variant next: V3N
condition met

Try this variant next: A17K
condition met

Try this variant next: D9T
condition met

Try this variant next: L16M
condition met

Try this variant next: V3C
condition met

Try this variant next: T12F
condition not met

Try this variant next: A17N
condition met

Try this variant next: L16Q
condition met
